Every entry's value here was drawn from patent US9850283B2.

- target_or_test_system: LK35.2-hPD-L1 cells / PE-labeled PD-1-Ig (Homo sapiens)
- Construct: expressed in transfected cells; host or cells: LK35.2 mouse B cell line
- Sequence (Q9NZQ7 19-290): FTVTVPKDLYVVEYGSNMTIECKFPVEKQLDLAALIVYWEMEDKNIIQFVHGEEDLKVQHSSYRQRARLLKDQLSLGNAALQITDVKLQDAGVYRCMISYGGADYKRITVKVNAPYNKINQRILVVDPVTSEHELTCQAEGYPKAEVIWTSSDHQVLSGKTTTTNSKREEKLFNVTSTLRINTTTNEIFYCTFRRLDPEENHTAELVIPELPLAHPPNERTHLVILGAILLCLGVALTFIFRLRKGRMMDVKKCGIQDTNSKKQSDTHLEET
- experimental_protocol: LK35.2-hPD-L1 cell binding high-content screening assay
- Format: cell-based
- measurement_context: cluster symbol; cell line of CBA not given (LK35.2-hPD-L1 or 293T-hPD-L1); read-out: CBA IC50 cluster
pIC50: −log10 of the molar value. Positions of bridges follow the written chain, without caps; N, C: chain ends. Non-standard residues stand in square brackets, D forms with d. Residues, ends and D or L forms follow the SMILES beside them. 1Nal = N[C@@H](Cc1cccc2ccccc12)C(=O)O; Bta = N[C@@H](Cc1csc2ccccc12)C(=O)O; NMeF = CN[C@@H](Cc1ccccc1)C(=O)O; NMeNle = CCCC[C@H](NC)C(=O)O; NMeA = CN[C@@H](C)C(=O)O; Sar = CNCC(=O)O
List of pIC50 values.

- molecule: "CCCC[C@H]1C(=O)N(C)CC(=O)N[C@@H](CC(=O)O)C(=O)N[C@@H](C(C)C)C(=O)N(C)[C@@H](Cc2ccccc2)C(=O)N[C@@H](Cc2ccc(O)cc2)C(=O)N(C)CC(=O)N[C@@H](Cc2csc3ccccc23)C(=O)N[C@@H](Cc2ccc(O)cc2)C(=O)N[C@@H](CCC(=O)O)C(=O)N[C@H](C(=O)NCC(N)=O)CSCC(=O)N[C@@H](Cc2ccccc2)C(=O)N(C)[C@@H](Cc2ccccc2)C(=O)N1C [Example 3074] ({CH2CO}-F[NMeF][NMeNle][Sar]DV[NMeF]Y[Sar][Bta]YECG-NH2; thioether N-13)"
  pIC50: "7.14 to 8.32"
- molecule: "CCCC[C@H]1C(=O)N(C)[C@@H](CCCC)C(=O)N[C@@H](CCCNC(=N)N)C(=O)N[C@@H](C(=O)NCC(N)=O)CSCC(=O)N[C@@H](Cc2ccccc2)C(=O)N(C)[C@@H](C)C(=O)N[C@@H](CC(N)=O)C(=O)N2CCC[C@H]2C(=O)N[C@@H](Cc2cnc[nH]2)C(=O)N[C@@H](CC(C)C)C(=O)N(C)CC(=O)N[C@@H](Cc2c[nH]c3ccccc23)C(=O)N[C@@H](CO)C(=O)N[C@@H](Cc2cccc3ccccc23)C(=O)N1C [Example 1002] ({CH2CO}-F[NMeA]NPHL[Sar]WS[1Nal][NMeNle][NMeNle]R[dC]G-NH2; thioether N-14)"
  pIC50: "7.14 to 8.32"
- molecule: "CCCC[C@H]1C(=O)N(C)[C@@H](CCCC)C(=O)N[C@@H](C)C(=O)N[C@H](C(=O)NCC(N)=O)CSCC(=O)N[C@@H](Cc2ccc(O)cc2)C(=O)N(C)[C@@H](C)C(=O)N[C@@H](CC(N)=O)C(=O)N2CCC[C@H]2C(=O)N[C@@H](Cc2cnc[nH]2)C(=O)N[C@@H](CC(C)C)C(=O)N2CCC[C@H]2C(=O)N[C@@H](Cc2c[nH]c3ccccc23)C(=O)N[C@@H](CO)C(=O)N[C@@H](Cc2csc3ccccc23)C(=O)N1C [Example 1049] ({CH2CO}-Y[NMeA]NPHLPWS[Bta][NMeNle][NMeNle]ACG-NH2; thioether N-14)"
  pIC50: "8.33 to 9.80"
- molecule: "CCCC[C@H]1C(=O)N(C)[C@@H](CCCC)C(=O)N[C@@H](CCCNC(=N)N)C(=O)N[C@H](C(=O)NCC(N)=O)CSCC(=O)N[C@@H](Cc2ccccc2)C(=O)N(C)[C@@H](C)C(=O)N[C@@H](CC(N)=O)C(=O)N2CCC[C@H]2C(=O)N[C@@H](Cc2cnc[nH]2)C(=O)N[C@@H](CC(C)C)C(=O)N(C)CC(=O)N[C@@H](Cc2c[nH]c3ccccc23)C(=O)N[C@H](C)C(=O)N[C@@H](Cc2c[nH]c3ccccc23)C(=O)N1C [Example 1061] ({CH2CO}-F[NMeA]NPHL[Sar]W[dA]W[NMeNle][NMeNle]RCG-NH2; thioether N-14)"
  pIC50: "< 7.13"
